- System: MCF7
- test-summary: NCI tumour cell line growth inhibition, 48 h
Activity calls are given as the source filed them. Rule as the data show it: active = GI50 up to about 1.1 µM and inactive = higher.
reported-endpoint: GI50

| compound | reported-endpoint | reading |
| --- | --- | --- |
| CCOC(=O)c1csc(-c2nc(CCNC(=O)c3ccccc3)sc2Cl)n1 | GI50 | 67.6 µM (inactive) |
| Cc1ccc2c(=O)c(C(=O)NNC(=S)NC3CCCCC3)c[nH]c2n1 | GI50 | 83.6 µM (inactive) |
| O=C1OC(c2ccccc2)=N/C1=C\c1cn[nH]n1 | GI50 | > 100 µM (inactive) |
| O=C1N(CN2CCOCC2)CN(CN2CCOCC2)C(=O)N1Cc1ccccc1 | GI50 | 29.4 µM (inactive) |
| COc1ccc(-c2nc3ccccc3c(=S)n2OC(C)=O)cc1 | GI50 | 5.92 µM (inactive) |

Exercise: Return GI50 measured with MCF7 given this compound: "CC(=O)N1N=C(N)CC1=O"
Solution: > 100 µM (inactive)

Where do the numbers come from? From ChEMBL document CHEMBL1201862.
